Tested on: HeLa-APL
method: SRB colorimetric assay of cell growth and viability, HeLa-APL
Type: cell-based, human
assaySetup: HELA-APL; 48 hours exposure; read-out: LC50 HELA-APL
Where a SMILES comes first, the peptide text is derived from it. Bridges are numbered along the chain shown (N, C = ends). [ ]: non-standard residue; d: D form. The star is where a group is joined. d(aIle) = CC[C@H](C)[C@@H](N)C(=O)O; d(aThr) = C[C@@H](O)[C@@H](N)C(=O)O; hCha = N[C@@H](CCC1CCCCC1)C(=O)O; Hexanoyl(5-Me) = CC(C)CCCC(=O)*; Orn = NCCC[C@H](N)C(=O)O; Dhb = C/C=C(\N)C(=O)O
measurementKind: CC50 (µM)
Give a bare numeral; the unit µM is implied.

Report CC50 for C/C=C1\NC(=O)[C@H](CCC2CCCCC2)NC(=O)[C@@H](C(C)C)NC(=O)[C@@H]([C@@H](C)CC)NC(=O)[C@H](NC(=O)[C@H](NC(=O)[C@H](CCCN)NC(=O)[C@H]2CCCN2C(=O)[C@H](NC(=O)[C@@H](NC(=O)[C@@H](NC(=O)[C@H](NC(=O)CCCC(C)C)C(C)C)[C@@H](C)O)C(C)C)C(C)C)[C@@H](C)CC)[C@@H](C)OC(=O)[C@H](C(C)C)NC1=O [Compound 63] ({Hexanoyl(5-Me)}-[dV]TV[dV][dP][Orn][d(aIle)][d(aThr)][d(aIle)][dV][hCha][Dhb]V; ester 8-C) tested on HeLa-APL. 3.23
